This section lists pKi readings for 5-HT2C receptor (Homo sapiens, UniProt P28335).
Keep in mind that pKi stands for -log10 of concentration in molar terms.

CCc1ccc2c(n1)N1[C@@H](CNC[C@H]1C)C2
7.78

// next entry
Q: What value of pKi on 5-HT2C receptor (Homo sapiens, UniProt P28335) does `Cc1c2n(c3nc(Cl)ccc13)[C@H](C)CNC2` have?
A: 8.29

* * *

Parameter: Ki. Scope: all listed entries.
molecular target: human 5-HT2B receptors (Homo sapiens); test: Binding to the 5-HT2B receptor, [3H]-5-HT, CHO cell line (Method (b)); conditions: human 5-HT2B in CHO cell line, read-out: Ki (2B)
Sequence (P41595 whole entry): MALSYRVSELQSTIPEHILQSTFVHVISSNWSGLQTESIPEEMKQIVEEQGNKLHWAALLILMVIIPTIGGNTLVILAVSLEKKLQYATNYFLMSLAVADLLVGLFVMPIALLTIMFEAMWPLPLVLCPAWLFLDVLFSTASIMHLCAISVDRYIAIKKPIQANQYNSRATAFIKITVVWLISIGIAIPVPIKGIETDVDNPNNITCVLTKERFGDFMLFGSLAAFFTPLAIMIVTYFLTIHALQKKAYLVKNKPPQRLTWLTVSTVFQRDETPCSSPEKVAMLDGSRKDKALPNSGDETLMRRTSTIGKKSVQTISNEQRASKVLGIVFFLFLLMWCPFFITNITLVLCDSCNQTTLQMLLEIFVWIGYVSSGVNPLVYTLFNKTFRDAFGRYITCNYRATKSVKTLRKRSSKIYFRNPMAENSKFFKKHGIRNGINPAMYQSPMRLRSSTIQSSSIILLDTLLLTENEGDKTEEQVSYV
Phrase the answer as number then unit, nothing more needed.

Cc1c2n(c3nc(Cl)ccc13)[C@H](C)CNC2 [Example 20]
108 nM

// next entry
Q: What value of Ki on human 5-HT2B receptors (Homo sapiens) does CCc1ccc2c(n1)N1[C@@H](CNC[C@H]1C)C2 [Example 9] have?
A: 271 nM

* * *

Parameter: pEC50. Scope: all listed entries.
molecular target: 5-HT2C receptor (Homo sapiens, UniProt P28335); assay: Functional activity, FLIPR calcium assay, CHO cells expressing human 5-HT2C
Sequence (P28335 33-458): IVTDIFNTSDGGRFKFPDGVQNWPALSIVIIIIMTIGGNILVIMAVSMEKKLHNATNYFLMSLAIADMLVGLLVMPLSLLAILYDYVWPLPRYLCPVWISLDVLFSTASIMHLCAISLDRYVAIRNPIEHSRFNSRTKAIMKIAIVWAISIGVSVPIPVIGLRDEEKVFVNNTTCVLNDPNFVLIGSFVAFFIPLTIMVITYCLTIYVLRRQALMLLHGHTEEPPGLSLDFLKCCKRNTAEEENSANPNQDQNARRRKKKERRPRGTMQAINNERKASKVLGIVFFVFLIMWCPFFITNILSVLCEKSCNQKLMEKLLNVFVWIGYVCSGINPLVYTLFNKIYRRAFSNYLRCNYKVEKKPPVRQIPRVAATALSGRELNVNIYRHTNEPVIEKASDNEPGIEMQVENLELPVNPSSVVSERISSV
Keep in mind that pEC50 stands for -log10 of concentration in molar terms.

Q: What value of pEC50 on 5-HT2C receptor (Homo sapiens, UniProt P28335) does Cc1c2n(c3nc(Cl)ccc13)[C@H](C)CNC2 [Example 20] have?
A: 8.12

Q: What value of pEC50 on 5-HT2C receptor (Homo sapiens, UniProt P28335) does CCc1ccc2c(n1)N1[C@@H](CNC[C@H]1C)C2 [Example 9] have?
A: 7.07

* * *

Parameter: EC50. Scope: all listed entries.
target: 5-HT2A receptor (Homo sapiens, UniProt P28223); experiment: Functional activity, FLIPR calcium assay, CHO cells expressing human 5-HT2A; settings: FLIPR, CHO cells expressing human 5-HT2A; read-out: h5-HT2A EC50
Sequence (P28223 whole entry): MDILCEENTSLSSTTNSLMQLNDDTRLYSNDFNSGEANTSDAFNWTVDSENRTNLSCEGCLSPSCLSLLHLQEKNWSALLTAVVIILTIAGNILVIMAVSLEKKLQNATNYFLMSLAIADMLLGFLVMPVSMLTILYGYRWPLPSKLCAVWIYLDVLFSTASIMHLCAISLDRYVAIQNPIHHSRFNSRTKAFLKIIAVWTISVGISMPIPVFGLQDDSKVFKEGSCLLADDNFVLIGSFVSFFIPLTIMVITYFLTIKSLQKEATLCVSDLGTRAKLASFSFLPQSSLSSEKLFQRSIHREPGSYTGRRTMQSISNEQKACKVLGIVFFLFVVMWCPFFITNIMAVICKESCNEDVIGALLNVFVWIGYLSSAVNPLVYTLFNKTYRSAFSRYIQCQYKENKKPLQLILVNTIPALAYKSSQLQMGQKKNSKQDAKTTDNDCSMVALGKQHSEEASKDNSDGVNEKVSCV
Record the value in µM, omitting the unit from your answer.

Cc1c2n(c3nc(Cl)ccc13)[C@H](C)CNC2
0.0111

// next entry
Q: I would be grateful if you could share the reported EC50 for `CCc1ccc2c(n1)N1[C@@H](CNC[C@H]1C)C2` .
A: 0.644

* * *

Parameter: pKi. Scope: all listed entries.
target: 5-HT2A receptor (Homo sapiens)
Keep in mind that pKi stands for -log10 of concentration in molar terms.

Cc1c2n(c3nc(Cl)ccc13)[C@H](C)CNC2 [Example 20]
6.75

Q: I would be grateful if you could share the reported pKi for CCc1ccc2c(n1)N1[C@@H](CNC[C@H]1C)C2 [Example 9] .
A: 6.67
